# Test system: mouse p16Ink4a+/- lung fibroblasts (INKBRITE, bleomycin-injured)
# assay overview: GFP- (p16Ink4a-) cell count relative to negative-control wells (fold of vehicle); higher = more p16Ink4a- cells surviving
# settings: 1 µM; 3 days
In all, about 1,800 compounds were measured (“GFP- (p16Ink4a-) cell count relative to negative-control wells”: median about 0.99, lowest 2% from about 0.5 on). For the sample, the lowest values were picked, then their nearest neighbours and some compounds at random.
As shown below, each of these compounds has a reported GFP- value.
Give the value as a plain number.

Completed entries (count: 10):
# compound, measured number
data = [
    ("C=CCc1ccc(O)c(-c2ccc(O)c(CC=C)c2)c1", 0.883),
    ("CN1CCN(S(=O)(=O)c2ccc(-c3cnc(N)c(C(=O)Nc4cccnc4)n3)cc2)CC1", 0.998),
    ("C=CCc1cccc(/C=N/NC(=O)CN2CCN(Cc3ccccc3)CC2)c1O", 0.654),
    ("Cc1nc(NC(=O)N2CCC[C@H]2C(N)=O)sc1-c1ccnc(C(C)(C)C(F)(F)F)c1", 0.875),
    ("COc1ccc(CNc2nc(N3CCC[C@H]3CO)ncc2C(=O)NCc2ncccn2)cc1Cl", 1.06),
    ("Cc1ccc(CNc2ncnc3ccc(-c4ccc(CO)o4)cc23)o1", 0.793),
    ("Cc1ccc([N+](=O)[O-])cc1S(=O)(=O)N(C)/N=C/c1cnc2ccc(Br)cn12", 0.385),
    ("CCn1cc(C(=O)O)c(=O)c2ccc(C)nc21", 0.895),
    ("CCOc1ccc(Cc2cc([C@@H]3O[C@H](CO)[C@@H](O)[C@H](O)[C@H]3O)ccc2Cl)cc1", 1.12),
    ("CCN(CC)CC#CCOC(=O)C(O)(c1ccccc1)C1CCCCC1 (stereo not drawn)", 0.971),
]

Then there is this compound:
Task: Item O=C1C(Cl)=C(N2CCOCC2)C(=O)N1c1ccc(Cl)c(Cl)c1 : provide GFP-
Output: 1.05

====

# Tested on: mouse p16Ink4a+/- lung fibroblasts (INKBRITE, bleomycin-injured)
# assay overview: GFP- (p16Ink4a-) cell count relative to negative-control wells (fold of vehicle); higher = more p16Ink4a- cells surviving
# settings: 1 µM; 3 days
Where a name gives a salt, the structure may show the parent alone. The full ranking holds about 1,800 compounds; the median of “GFP- (p16Ink4a-) cell count relative to negative-control wells” is about 0.99, and the lowest 2% start at about 0.5. The sample holds the lowest values, similar compounds and a random draw of the others, so the mix is not that of the screen.
measure: GFP-
Give the value as a plain number.

# molecule, measure, measured number
rows = [
    ("Cc1ccc(Cl)cc1N(CC(=O)Nc1c(F)cccc1F)S(C)(=O)=O", "GFP-", 1.06),
    ("Clc1ccc(C(Cn2ccnc2)OCc2ccsc2Cl)c(Cl)c1 (stereo unspecified)", "GFP-", 0.993),
    ("CCOc1ccn(-c2ccc(F)cc2)c(=O)c1C(=O)Nc1ccc(Oc2ccnc(N)c2Cl)c(F)c1", "GFP-", 0.736),
    ("Cn1cc(-c2ccc3ncc(Cc4ccc5ncccc5c4)n3n2)cn1", "GFP-", 1.01),
    ("CC(=O)O[C@@]12CO[C@@H]1C[C@H](O)[C@@]1(C)C(=O)[C@H](O)C3=C(C)[C@@H](OC(=O)[C@H](O)[C@@H](NC(=O)OC(C)(C)C)c4ccccc4)C[C@@](O)([C@@H](OC(=O)c4ccccc4)[C@H]21)C3(C)C", "GFP-", 0.447),
]

Task: Item Cc1nc(O)c2cc(CN(C)c3ccc(C(=O)N[C@@H](CCC(=O)O)C(=O)O)s3)ccc2n1 : provide GFP-
Output: 1.01

Task: Item C/C(=N\NC(=S)N1CCC1)c1ccccn1 : provide GFP-
Output: 0.4

Task: Item CNC(=O)c1ccccc1Nc1nc(Nc2ccc(N3CCOCC3)cc2OC)ncc1Cl : provide GFP-
Output: 0.742

Task: Item O=C(c1ccc(F)cc1)C1CCN(CCn2c(=O)[nH]c3ccccc3c2=O)CC1 [Ketanserin Tartrate] : provide GFP-
Output: 0.924

Task: Item CC(C)CN(C[C@@H](O)[C@H](Cc1ccccc1)NC(=O)O[C@H]1CCOC1)S(=O)(=O)c1ccc(N)cc1 : provide GFP-
Output: 1.01

Task: Item Nc1ccccc1NC(=O)c1ccc(CNc2nccc(-c3cccnc3)n2)cc1 : provide GFP-
Output: 0.436

Task: Item CC(C)C[C@H](NC(=O)[C@H](Cc1ccccc1)NC(=O)c1cnccn1)B(O)O : provide GFP-
Output: 0.294

Task: Item COc1cc2nccc(Oc3ccc(NC(=O)C4(C(=O)Nc5ccc(F)cc5)CC4)cc3)c2cc1OC [Cabozantinib] : provide GFP-
Output: 0.824

Task: Item COc1ccc(-c2ccc3cc(C(=O)O)ccc3c2)cc1C12CC3CC(CC(C3)C1)C2 : provide GFP-
Output: 1.05

Task: Item COc1ccc(-c2nc(N3CCOCC3)c3sc(CN(C)c4ncc(C(=O)NO)cn4)cc3n2)cn1 [Fimepinostat] : provide GFP-
Output: 0.491

Task: Item C[C@@H]1O[C@@H](O[C@H]2[C@H](Oc3cc(O)c4c(c3)O[C@H](c3ccc(O)cc3)CC4=O)O[C@H](CO)[C@@H](O)[C@@H]2O)[C@H](O)[C@H](O)[C@H]1O : provide GFP-
Output: 1.1

Task: Item CN(NC(=O)CC(=O)NN(C)C(=S)c1ccccc1)C(=S)c1ccccc1 : provide GFP-
Output: 0.277

Task: Item Nc1ccccc1NC(=O)c1ccc(CNC(=O)OCc2cccnc2)cc1 : provide GFP-
Output: 0.641

Task: Item CC(C)C1CCC(C(=O)N[C@H](Cc2ccccc2)C(=O)O)CC1 (stereo partly specified) [Nateglinide] : provide GFP-
Output: 1.06

Task: Item CO[C@H]1C(=O)[C@]2(C)[C@@H](OC)C[C@H]3OC[C@@]3(OC(C)=O)[C@H]2[C@H](OC(=O)c2ccccc2)[C@]2(O)C[C@H](OC(=O)[C@H](O)[C@@H](NC(=O)OC(C)(C)C)c3ccccc3)C(C)=C1C2(C)C : provide GFP-
Output: 0.558

Task: Item CC(C)C[C@@H](C=O)NC(=O)[C@H](CC(C)C)NC(=O)[C@H](CC(C)C)NC(=O)OCc1ccccc1 : provide GFP-
Output: 0.302

Task: Item C#Cc1cccc(Nc2ncnc3cc(OCCOC)c(OCCOC)cc23)c1 : provide GFP-
Output: 0.287

Task: Item COc1c2ccoc2cc2oc(=O)ccc12 : provide GFP-
Output: 1.08

Task: Item CC(=O)SCC(Cc1ccccc1)C(=O)NCC(=O)OCc1ccccc1 (stereo unspecified) : provide GFP-
Output: 0.972

Task: Item COc1cc2nccc(Oc3ccc(NC(=O)Nc4cc(C)on4)c(Cl)c3)c2cc1OC : provide GFP-
Output: 1.01

Task: Item C[C@H](NC(=O)[C@@H](O)c1cc(F)cc(F)c1)C(=O)N[C@@H]1C(=O)N(C)c2ccccc2-c2ccccc21 : provide GFP-
Output: 0.963

====

# Tested on: mouse p16Ink4a+/- lung fibroblasts (INKBRITE, bleomycin-injured)
# assay overview: GFP- (p16Ink4a-) cell count relative to negative-control wells (fold of vehicle); higher = more p16Ink4a- cells surviving
# settings: 1 µM; 3 days
Structures can show the parent of a compound that is named as a salt. Over roughly 1,800 compounds, “GFP- (p16Ink4a-) cell count relative to negative-control wells” has its median near 0.99; the lowest 2% begin near 0.5. Only a selection was taken, and the lowest values are over-represented in it overall.
Rule: GFP- of 0.7 or more gives 1; anything lower gives 0.

# compound, assayed system, assigned label
records = [
    ("COCCO/C(O)=C1\\C(C)=NC(C)=C(C(=O)OC(C)C)C1c1cccc([N+](=O)[O-])c1 (configuration not stated)", "mouse p16Ink4a+/- lung fibroblasts (INKBRITE, bleomycin-injured)", 1),
    ("O=C1CCC[C@@H]2[C@H]3CCC[N+]4([O-])CCC[C@@H](CN12)[C@@H]34 (some centres not stated)", "mouse p16Ink4a+/- lung fibroblasts (INKBRITE, bleomycin-injured)", 1),
    ("CC1CNc2c(cccc2S(=O)(=O)N[C@@H](CCCN=C(N)N)C(=O)N2CC[C@@H](C)C[C@@H]2C(=O)O)C1 (some centres not stated)", "mouse p16Ink4a+/- lung fibroblasts (INKBRITE, bleomycin-injured)", 1),
    ("CCOC(=O)[C@H](CCc1ccccc1)N[C@@H](C)C(=O)N1CCC[C@H]1C(=O)O", "mouse p16Ink4a+/- lung fibroblasts (INKBRITE, bleomycin-injured)", 1),
    ("Cc1[nH]c(/C=C2\\C(=O)Nc3ccc(S(=O)(=O)Cc4c(Cl)cccc4Cl)cc32)c(C)c1C(=O)N1CCC[C@@H]1CN1CCCC1", "mouse p16Ink4a+/- lung fibroblasts (INKBRITE, bleomycin-injured)", 0),
    ("COc1cc(N2CCC(N(C)C)CC2)ccc1Nc1ncc(Cl)c(Nc2ccccc2P(C)(C)=O)n1", "mouse p16Ink4a+/- lung fibroblasts (INKBRITE, bleomycin-injured)", 1),
    ("C[C@]12CC[C@@H]3c4ccc(O)cc4C[C@@H](CCCCCCCCCS(=O)CCCC(F)(F)C(F)(F)F)[C@H]3[C@@H]1CC[C@@H]2O (some centres not stated)", "mouse p16Ink4a+/- lung fibroblasts (INKBRITE, bleomycin-injured)", 1),
    ("CCCCN1CCCCC1C(=O)Nc1c(C)cccc1C (configuration not stated)", "mouse p16Ink4a+/- lung fibroblasts (INKBRITE, bleomycin-injured)", 1),
]

Task: Is GFP- at least 0.7? Consider CC(=O)[C@]1(O)Cc2c(O)c3c(c(O)c2[C@@H](O[C@H]2C[C@H](N)[C@H](O)[C@H](C)O2)C1)C(=O)c1ccccc1C3=O [Idarubicin, Idarubicin Hydrochloride]
Output: 0

Task: Is GFP- at least 0.7? Consider CC(C)C[C@H](NC(=O)[C@H](CCc1ccccc1)NC(=O)CN1CCOCC1)C(=O)N[C@@H](Cc1ccccc1)C(=O)N[C@@H](CC(C)C)C(=O)[C@@]1(C)CO1
Output: 0

Task: Is GFP- at least 0.7? Consider CC(=O)/N=c1/sc(S(N)(=O)=O)nn1C [Methazolamide]
Output: 1

Sourced from the supplement of paper PMC11060735
